SYSTEM_NAME: polyclonal IgG (Gammanorm, Octapharma, Sweden)
PROTOCOL_SUMMARY: SPR (Biacore 8K+), variant amine-coupled to CM5, Gammanorm as analyte, steady state fit
MEASURED_ATTRIBUTE: pKd
Formally, pKd is defined as -log10 of the concentration c, with c in mol/L.

Completed entries (count: 4):
[
  {
    "BINDER": "pAM116 (B3 domain of Protein L; pos 10 N, pos 45 H, pos 60 N) (designed binder) PKEEVTIKANLIYADGKTQTAEFKGTFEEATAEAYRYADLLAKEHGKYTVDVADKGYTLNIKFAGKEKTPEE",
    "pKd": 7.29
  },
  {
    "BINDER": "pAM158 (B5 domain of Protein L; pos 10 Q, pos 45 A, pos 60 Q) (designed binder) KEQVTIKEQIYFEDGTVQTATFKGTFAEATAEAYRYADLLSKEAGKYTADLEDGGYTIQIRFAGKEEPEE",
    "pKd": 7.62
  },
  {
    "BINDER": "pAM135 (B3 domain of Protein L; pos 10 Y, pos 45 N, pos 60 Q) (designed binder) PKEEVTIKAYLIYADGKTQTAEFKGTFEEATAEAYRYADLLAKENGKYTVDVADKGYTLQIKFAGKEKTPEE",
    "pKd": 7.21
  },
  {
    "BINDER": "pAM176 (C3 domain of Protein L; pos 10 Y, pos 45 H, pos 60 Y) (designed binder) PKEEVTIKVYLIFADGKIQTAEFKGTFEEATAKAYAYANLLAKEHGEYTADLEDGGNTIYIKFAGKETPETPEE",
    "pKd": 6.86
  }
]

Attention now turns to another entry.
pKd reported for this binder pAM162 (C2 domain of Protein L; pos 10 Q, pos 45 A, pos 57 Y, pos 60 Q) (designed binder) PKEEVTIKVQLIFADGKTQTAEFKGTFEEATAKAYAYADLLAKEAGEYTADLEDGGYTIQIKFAGKETPETPEE : 7.41

Data credit: patent US20240391984A1
